Biological target: human BACE-2 (Homo sapiens (Human))
Assay: Test 2: Inhibition of human BACE-2
Format: biochemical
Conditions: mean IC50, recombinant BACE-2, acetate buffer pH 4.5, fluorescence-quenched peptide substrate; read-out: BACE-2 IC50
Counter-ions that a name gives are not always drawn.
Quantity: IC50 (nM)

Solved entries (count: 3):
[
  {
    "Molecule": "NC1=NC(CF)(c2ccnc(NC(=O)c3ccc(Cl)cn3)c2)COC1 (centres unmarked)",
    "IC50 (nM)": 4800
  },
  {
    "Molecule": "C[C@@]1(c2cc(NC(=O)c3ncc(C#N)cc3Cl)ncc2F)CO[C@@](C)(C(F)(F)F)C(N)=N1",
    "IC50 (nM)": 120
  },
  {
    "Molecule": "NC1=NC(CF)(c2cc(NC(=O)c3ccc(Br)cn3)cnc2Cl)COC1 (centres unmarked) [Example 18, hydrochloride]",
    "IC50 (nM)": 130
  }
]

I: C[C@@]1(c2cccc(NC(=O)c3ncc(C#N)cc3N)n2)CO[C@@](C)(C(F)(F)F)C(N)=N1
II: N#Cc1cnc(C(=O)Nc2ccc(F)c([C@]3(C(F)F)COCC(N)=N3)n2)c(Cl)c1
III: Cc1cc(C#N)cnc1C(=O)Nc1ccc(F)c([C@@]2(C(F)F)COCC(N)=N2)n1
IV: Cc1cnc(C(=O)Nc2ccc(F)c([C@]3(C)CO[C@@](C)(C(F)(F)F)C(N)=N3)n2)cn1
V: C[C@@]1(c2cccc(NC(=O)c3ncc(C#N)cc3Cl)n2)CO[C@@](C)(C(F)(F)F)C(N)=N1
Provide the items ranked by increasing IC50. Answer by writing out the labels in the requested order. V, I, II, IV, III

====

The reader will find reported pIC50 values listed item by item below.
Molecular target: human BACE-2 (Homo sapiens (Human), UniProt Q9Y5Z0)
Sequence (Q9Y5Z0 63-473): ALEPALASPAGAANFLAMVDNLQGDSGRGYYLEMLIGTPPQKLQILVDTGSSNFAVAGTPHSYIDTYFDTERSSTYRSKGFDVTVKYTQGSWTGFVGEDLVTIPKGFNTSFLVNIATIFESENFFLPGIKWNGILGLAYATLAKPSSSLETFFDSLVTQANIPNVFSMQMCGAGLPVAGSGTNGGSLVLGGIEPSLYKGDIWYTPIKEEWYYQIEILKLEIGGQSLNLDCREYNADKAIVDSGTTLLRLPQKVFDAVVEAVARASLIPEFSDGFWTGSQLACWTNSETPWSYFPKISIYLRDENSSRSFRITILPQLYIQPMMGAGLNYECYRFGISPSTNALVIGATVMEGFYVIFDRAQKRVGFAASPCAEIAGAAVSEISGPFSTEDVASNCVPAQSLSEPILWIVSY
Test: Test 2: Inhibition of human BACE-2
Type: biochemical
// pIC50: -log10(molar conc.)

Solved entries (count: 2):
[
  {
    "Compound": "[2H]c1nc(C(=O)Nc2cccc(C3(CF)COCC(N)=N3)n2)c(C([2H])([2H])[2H])c([2H])c1Cl (stereo not shown)",
    "Assay target": "human BACE-2 (Homo sapiens (Human), UniProt Q9Y5Z0)",
    "Quantity": "pIC50",
    "Result": 6.62
  },
  {
    "Compound": "[2H]c1nc(C(=O)Nc2cccc([C@]3(C)CO[C@@](C)(C(F)(F)F)C(N)=N3)n2)c(C([2H])([2H])[2H])c([2H])c1Cl",
    "Assay target": "human BACE-2 (Homo sapiens (Human), UniProt Q9Y5Z0)",
    "Quantity": "pIC50",
    "Result": 8.10
  }
]

Query compound follows.
The compound identified as [2H]c1nc(C(=O)Nc2cc(C3(CF)COCC(N)=N3)ccn2)c(C([2H])([2H])[2H])c([2H])c1Cl (stereo not shown) [Example 13, acetate] registered its pIC50 at 5.82

====

Target: human BACE-2 (Homo sapiens (Human))
Assay: Test 2: Inhibition of human BACE-2
Type: biochemical
Settings: mean IC50, recombinant BACE-2, acetate buffer pH 4.5, fluorescence-quenched peptide substrate; read-out: BACE-2 IC50
pIC50: −log10 of the molar value.
Quantity: pIC50

[
  {
    "Molecule": "C[C@@]1(c2cccc(NC(=O)c3ccc(Br)cn3)n2)COCC(N)=N1 [Example 1]",
    "Quantity": "pIC50",
    "Result": 6.59
  }
]

P: C[C@@]1(c2cccc(NC(=O)c3ncc(Br)cc3Cl)n2)CO[C@@](C)(C(F)(F)F)C(N)=N1 [Example 22]
Q: C[C@@]1(c2cc(NC(=O)c3ncc(OC(F)F)cc3Cl)ncc2F)CO[C@@](C)(C(F)(F)F)C(N)=N1 [Example 36]
Return label of the item with the larger pIC50. Candidates: P , Q . Please identify the chosen entry by its label. P
(P: 8.30, Q: 6.55)

====

Biological target: human BACE-2 (Homo sapiens (Human))
Experiment: Test 2: Inhibition of human BACE-2
Type: biochemical
Details: mean IC50, recombinant BACE-2, acetate buffer pH 4.5, fluorescence-quenched peptide substrate; read-out: BACE-2 IC50
Quantity: IC50 (µM)

Solved entries (count: 3):
[
  {
    "Compound": "C[C@@]1(c2nc(NC(=O)c3nn(C(F)F)cc3Cl)ccc2F)CO[C@@](C)(C(F)(F)F)C(N)=N1",
    "Result": 0.005
  },
  {
    "Compound": "COc1cnc(C(=O)Nc2ccc(F)c([C@]3(C)CO[C@@](C)(C(F)(F)F)C(N)=N3)n2)c(C)c1",
    "Result": 0.015
  },
  {
    "Compound": "NC(=S)c1ccc(C(=O)Nc2cccc(C3(CF)COCC(N)=N3)n2)nc1 (stereo not shown)",
    "Result": 8.7
  }
]

1: Cc1cc(OCF)cnc1C(=O)Nc1ccc(F)c([C@]2(C)CO[C@@](C)(C(F)(F)F)C(N)=N2)n1
2: CC1(c2cccc(NC(=O)c3ccc(Br)cn3)n2)COCC(N)=N1 (racemic)
Return label of the item with the larger IC50. Candidates: 1 , 2 . Please identify the chosen entry by its label. 2

====

The reader will find reported IC50 values listed item by item below.
Target: human BACE-1 (Homo sapiens (Human))
Sequence (P56817 46-457): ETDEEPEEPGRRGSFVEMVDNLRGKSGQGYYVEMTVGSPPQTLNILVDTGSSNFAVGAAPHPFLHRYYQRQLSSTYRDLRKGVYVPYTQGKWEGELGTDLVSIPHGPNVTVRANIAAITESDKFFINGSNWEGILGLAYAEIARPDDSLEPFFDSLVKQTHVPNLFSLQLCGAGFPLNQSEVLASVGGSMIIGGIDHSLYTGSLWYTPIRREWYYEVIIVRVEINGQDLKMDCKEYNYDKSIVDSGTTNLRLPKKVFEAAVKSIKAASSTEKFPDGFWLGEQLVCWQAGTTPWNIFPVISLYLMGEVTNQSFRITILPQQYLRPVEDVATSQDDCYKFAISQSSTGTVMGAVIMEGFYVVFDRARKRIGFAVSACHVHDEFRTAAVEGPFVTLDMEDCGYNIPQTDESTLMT
Assay: Test 1: Inhibition of human BACE-1

[
  {
    "Compound": "C[C@@]1(c2nc(NC(=O)c3nc4ccn(CC(F)F)c4cc3Cl)ccc2F)CO[C@@](C)(C(F)(F)F)C(N)=N1",
    "IC50": "> 10 µM"
  },
  {
    "Compound": "Cc1cc(C(N)=S)cnc1C(=O)Nc1cc(C2(CF)COCC(N)=N2)ccn1 (stereo not drawn)",
    "IC50": "> 10 µM"
  }
]

Query compound follows.
The compound identified as C[C@@]1(c2nc(NC(=O)c3nc4ccn(CC(F)F)c4nc3N)ccc2F)CO[C@@](C)(C(F)(F)F)C(N)=N1 registered its IC50 at > 10 µM

====

Target: human BACE-1 (Homo sapiens (Human))
Experiment: Test 1: Inhibition of human BACE-1
Conditions: read-out: BACE-1 IC50; mean IC50, recombinant BACE-1, acetate buffer pH 4.5, fluorescence-quenched peptide substrate
pIC50: −log10 of the molar value.
Quantity: pIC50

Solved entries (count: 5):
[
  {
    "Compound": "Cc1cc(OCF)cnc1C(=O)Nc1ccc(F)c([C@]2(C)CO[C@@](C)(C(F)(F)F)C(N)=N2)n1 [Example 32]",
    "pIC50": 7.35
  },
  {
    "Compound": "N#Cc1cnc(C(=O)Nc2ccc(F)c([C@]3(C(F)F)COCC(N)=N3)n2)c(Cl)c1 [Example 40]",
    "pIC50": 7.38
  },
  {
    "Compound": "C[C@@]1(c2cccc(NC(=O)c3ncc(OCC(F)(F)F)nc3N)n2)CO[C@@](C)(C(F)(F)F)C(N)=N1 [Example 23]",
    "pIC50": 5.92
  },
  {
    "Compound": "NC(=S)c1ccc(C(=O)Nc2cccc(C3(CF)COCC(N)=N3)n2)nc1 (centres unmarked) [Example 7]",
    "pIC50": 5.68
  },
  {
    "Compound": "COCCn1ccc2nc(C(=O)Nc3ccc(F)c([C@]4(C)CO[C@@](C)(C(F)(F)F)C(N)=N4)n3)c(Cl)cc21 [Example 48]",
    "pIC50": 5.14
  }
]

1: Cc1cc(C#N)cnc1C(=O)Nc1ccc(F)c([C@]2(C(F)F)COCC(N)=N2)n1 [Example 38]
2: Cc1cc(C#N)cnc1C(=O)Nc1cc([C@]2(C)COC(CF)(CF)C(N)=N2)c(F)cn1 [Example 37]
Return label of the item with the larger pIC50. Candidates: 1 , 2 . Please identify the chosen entry by its label. 1

====

Target: human BACE-2 (Homo sapiens (Human), UniProt Q9Y5Z0)
Assay: Test 2: Inhibition of human BACE-2
Format: biochemical
pIC50: −log10 of the molar value.
The reader will find reported pIC50 values listed item by item below.

[
  {
    "Molecule": "COCCn1ccc2nc(C(=O)Nc3ccc(F)c([C@]4(C)CO[C@@](C)(C(F)(F)F)C(N)=N4)n3)c(Cl)cc21",
    "pIC50": "< 5.00"
  },
  {
    "Molecule": "Cc1cc(C(N)=S)cnc1C(=O)Nc1cc(C2(CF)COCC(N)=N2)ccn1 (stereo not shown)",
    "pIC50": "< 5.00"
  },
  {
    "Molecule": "COCCn1ccc2nc(C(=O)Nc3ccc(F)c([C@]4(C)CO[C@@](C)(C(F)(F)F)C(N)=N4)n3)c(N)nc21",
    "pIC50": "< 5.00"
  }
]

Query molecule follows.
The molecule identified as C[C@@]1(c2nc(NC(=O)c3nc4ccn(CC(F)F)c4nc3N)ccc2F)CO[C@@](C)(C(F)(F)F)C(N)=N1 registered its pIC50 at < 5.00
